Experiment: Biodistribution in mice excretion, after 48 hr of intravenous administration of 1-2 ug of compound (entrapped in bovine brain sphingomyelin/ cholesterol multilamellar vehicles) at
Type: ADME, organism-based
Conditions: mouse, excretion (excreta, not specified further), read-out: ID
observable: dose excreted at 48 h (%)
Give bare numbers, in %.

// recorded dose excreted at 48 h for `NCCNC(=O)CN(CCN(CCN(CC(=O)O)CC(=O)O)CC(=O)O)CC(=O)O` : 0

* * *

Test: Biodistribution of compound in mice excretion after 21 hr of intravenous injection
Assay type: ADME, organism-based
Details: mouse, excretion (excreta, not specified further), read-out: ID
observable: dose excreted at 21 h (%)
One number for each entry, in %.

// recorded dose excreted at 21 h for `NCCNC(=O)CN(CCN(CCN(CC(=O)O)CC(=O)O)CC(=O)O)CC(=O)O` : 77.1

* * *

Experiment: Biodistribution in mice excretion, after 1 hr of intravenous administration of 1-2 ug of compound (entrapped in bovine brain sphingomyelin/ cholesterol multilamellar vehicles)
Format: ADME, organism-based
Conditions: mouse, excretion (excreta, not specified further), read-out: ID
observable: dose excreted at 1 h
Provide a numeric answer, followed by its unit.

// recorded dose excreted at 1 h for `NCCNC(=O)CN(CCN(CCN(CC(=O)O)CC(=O)O)CC(=O)O)CC(=O)O` : 0%

* * *

Assay: Biodistribution of compound in mice excretion after 0.17 hr of intravenous injection
Type: ADME, organism-based
Settings: mouse, excretion (excreta, not specified further), read-out: ID
observable: dose excreted at 0.17 h (%)
Give bare numbers, in %.

// recorded dose excreted at 0.17 h for `NCCNC(=O)CN(CCN(CCN(CC(=O)O)CC(=O)O)CC(=O)O)CC(=O)O` : 3.6

* * *

Experiment: Biodistribution in mice excretion, after 12 hr of intravenous administration of 1-2 ug of compound (entrapped in bovine brain sphingomyelin/ cholesterol multilamellar vehicles)
Assay type: ADME, organism-based
Conditions: mouse, excretion (excreta, not specified further), read-out: ID
observable: dose excreted at 12 h (%)
Answers are plain numbers, in %.

// recorded dose excreted at 12 h for `NCCNC(=O)CN(CCN(CCN(CC(=O)O)CC(=O)O)CC(=O)O)CC(=O)O` : 0

Origin of the recorded values: ChEMBL document CHEMBL1124106
